Cited source: patent US20230192705A1

SYSTEM: SHP2 (Homo sapiens)
METHOD SUMMARY: SHP2 allosteric inhibitor enzyme activity assay (DiFMUP fluorescence)
Type: biochemical
RECORDED CONDITIONS: class symbols

{"columns": ["COMPOUND", "IC50"],
 "data": [
  ["C[C@@H]1OCC2(CCN(c3nc4[nH]nc(C5(c6cccc(C(F)(F)F)c6)CC5)c4c(=O)[nH]3)CC2)[C@@H]1N", "0.02 to 0.06 µM"],
  ["N[C@@H]1Cn2nccc2C12CCN(c1nc3[nH]nc(C4(c5ccccc5)CC4)c3c(=O)[nH]1)CC2", "0.02 to 0.06 µM"],
  ["N[C@@H]1c2ccccc2CC12CCN(c1nc3[nH]nc(C4(c5ccnc(OC6CC6)c5)CC4)c3c(=O)[nH]1)CC2", "≤ 0.02 µM"],
  ["N[C@@H]1c2ccccc2CC12CCN(c1nc3[nH]nc(C4(c5ccc[s+]5[O-])CC4)c3c(=O)[nH]1)CC2 (stereo partly shown)", "≤ 0.02 µM"]
]}

* * *

SYSTEM: SHP2 (Homo sapiens)
Sequence (Q06124 1-593): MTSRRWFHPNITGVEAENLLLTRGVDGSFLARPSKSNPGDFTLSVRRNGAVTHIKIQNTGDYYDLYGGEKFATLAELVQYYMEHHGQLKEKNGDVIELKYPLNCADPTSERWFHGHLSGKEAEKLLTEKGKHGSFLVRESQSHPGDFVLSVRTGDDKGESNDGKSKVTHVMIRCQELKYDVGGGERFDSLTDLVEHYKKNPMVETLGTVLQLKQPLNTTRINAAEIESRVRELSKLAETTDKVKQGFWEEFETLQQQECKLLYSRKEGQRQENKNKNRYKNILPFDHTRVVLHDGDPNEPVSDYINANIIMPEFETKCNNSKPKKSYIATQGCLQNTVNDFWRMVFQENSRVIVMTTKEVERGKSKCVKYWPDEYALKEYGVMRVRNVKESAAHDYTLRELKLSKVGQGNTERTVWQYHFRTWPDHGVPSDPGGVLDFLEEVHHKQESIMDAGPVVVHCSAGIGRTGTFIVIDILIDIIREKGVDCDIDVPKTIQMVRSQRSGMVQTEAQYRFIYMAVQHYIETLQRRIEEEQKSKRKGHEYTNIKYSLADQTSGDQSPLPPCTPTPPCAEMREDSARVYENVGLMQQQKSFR
METHOD SUMMARY: SHP2 allosteric inhibitor enzyme activity assay (DiFMUP fluorescence)
Type: biochemical
RECORDED CONDITIONS: class symbols
pIC50: −log10 of the molar value.
Listing of recorded pIC50 by entry.

{"columns": ["COMPOUND", "pIC50"],
 "data": [
  ["C[C@@H]1OCC2(CCN(c3nc4[nH]nc(C5(c6ccc7c(c6)OCO7)CC5)c4c(=O)[nH]3)CC2)[C@@H]1N", "7.22 to 7.70"],
  ["N[C@@H]1c2ccccc2CC12CCN(c1nc3[nH]nc(C4(c5ccc(Cl)nn5)CC4)c3c(=O)[nH]1)CC2", "7.22 to 7.70"],
  ["CCC(c1ccccc1)c1n[nH]c2nc(N3CCC4(CC3)Cc3ccccc3[C@H]4N)[nH]c(=O)c12 (stereo partly shown)", "≥ 7.70"],
  ["Cn1cc(-c2cccc(C3(c4n[nH]c5nc(N6CCC7(CC6)Cc6ccccc6[C@H]7N)[nH]c(=O)c45)CC3)c2)cn1", "≥ 7.70"]
]}
